Test: 2nd Phase I study, single i.v. dose 48 or 150 mg, healthy male volunteers
Assay type: in vivo, human
Conditions: male, human, plasma, iv; 48 mg single i.v. infusion, healthy volunteers, mean ± SE
Procedure: Pharmacokinetic parameters were estimated by a non-compartmental method using WinNonlin Professional version 3.2 (Pharsight Corp., Mountain View, Calif.). […] The terminal slope (X) was estimated by linear regression through the last time points and used to calculate the terminal half-life (t1/2) from the following equation: t1/2=0.693/λ The area under the curve from time of dosing through the last time point (AUCz) was calculated by the linear trapezoid method. […]
measure: MRT (h)
Number only, in h; omit the unit.

Tell me the measured MRT of CCCCCCC(C)(C)c1cc(O)c2c(c1)OC(C)(C)[C@H]1CC=C(CO)C[C@H]21 , please.
8.4
